Data provenance: patent US20090118167A1

# Tested target: T1, human VPAC2 receptor (human, UniProt P41587 24-438)
# T1 sequence (looked up): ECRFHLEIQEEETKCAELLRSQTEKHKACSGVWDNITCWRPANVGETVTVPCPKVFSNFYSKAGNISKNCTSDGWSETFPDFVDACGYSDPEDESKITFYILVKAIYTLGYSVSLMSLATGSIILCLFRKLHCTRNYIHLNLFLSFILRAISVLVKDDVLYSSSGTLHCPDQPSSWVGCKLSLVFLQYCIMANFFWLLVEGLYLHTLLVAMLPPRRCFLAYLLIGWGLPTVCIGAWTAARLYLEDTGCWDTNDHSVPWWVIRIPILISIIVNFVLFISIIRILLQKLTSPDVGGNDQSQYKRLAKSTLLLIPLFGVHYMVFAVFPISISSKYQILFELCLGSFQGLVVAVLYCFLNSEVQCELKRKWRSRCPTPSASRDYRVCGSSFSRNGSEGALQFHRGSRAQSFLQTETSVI
# Assay procedure: cell-based or functional assay
Square brackets hold non-standard residues; d marks the D form. Ends that are not written are not given here. Nle = CCCC[C@H](N)C(=O)O; Orn = NCCC[C@H](N)C(=O)O; Aib = CC(C)(N)C(=O)O
Listing of entries alongside the reported EC50 for cAMP generation, Alpha screen.
State the answer as a number, implicitly in nM.

Guide cases for EC50 for cAMP generation, Alpha screen, answers given:
Binder: HSDAVFTENYTKLRKQ[Nle]AAKKYLNDLKKGGPSSGAPPPC (not fully specified (residue 39); ends and bridges not checked; also: further groups not given here) [P201 (cyclic PEGylated VPAC2 receptor peptide agonist)]
Quantitative readout: 7.82

Binder: HSDAVFTENYTKLR[Aib]Q[Nle]AAKKYLNDLK[Aib]KGGPSSGAPPPC (also: further groups not given here) [P348 (cyclic PEGylated VPAC2 receptor peptide agonist)]
Quantitative readout: 5.82

Binder: HSDAVFTENYTKL[Aib]KQ[Nle]AAKKYLNDLKQGGPSSGAPPPC (ends and bridges not checked; also: further groups not given here) [P255 (cyclic PEGylated VPAC2 receptor peptide agonist)]
Quantitative readout: 111

[ask] What measured EC50 for cAMP generation, Alpha screen goes with HSDAVFTENYT[Orn]LR[Aib]Q[Nle]AA[Orn]KYLNDL[Orn][Orn]GGPSSGAPPPC (not fully specified (residue 39); also: cyclic, bridge type and places not given here, PEGylated, site not placed) [P376 (cyclic PEGylated VPAC2 receptor peptide agonist)] ?
[reply] 4.71
